- measured_target: T1, human CXCR4-enriched lipoparticles (LEV101, Integral Molecular) (human, UniProt P61073 1-352)
- T1 construct: Bought reagent; CXCR4 held in lipoparticles captured by biotinylated WGA on an SA chip; also called Lipoparticles containing CXCR4 proteins
- T1 sequence (P61073 whole entry): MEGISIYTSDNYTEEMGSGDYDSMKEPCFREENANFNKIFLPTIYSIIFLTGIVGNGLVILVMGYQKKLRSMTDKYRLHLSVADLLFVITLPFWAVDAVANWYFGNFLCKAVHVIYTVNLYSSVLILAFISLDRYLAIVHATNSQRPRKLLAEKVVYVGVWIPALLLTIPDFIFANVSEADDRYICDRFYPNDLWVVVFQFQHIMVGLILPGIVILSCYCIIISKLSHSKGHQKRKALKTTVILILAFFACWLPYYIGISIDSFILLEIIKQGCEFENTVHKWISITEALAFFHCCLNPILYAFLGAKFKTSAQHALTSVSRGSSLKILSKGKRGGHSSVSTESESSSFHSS
- assay_name: biosensor kinetic titration, Fab over captured human CXCR4 lipoparticles
endpoint_name: t½

Example entries begin here.
h3G10.A57 VH / h3G10.A58B VL Fab (Fab, V domains shown, Tested as Fab) VH: EVQLVESGGGLVQPGGSLRLSCAASGFTFSDYYMSWVRQAPGKGLEWVGFIRHKANFYTTEYSTSVKGRFTISRDDSKNSLYLQMNSLKTEDTAVYYCARDLPGFAYWGQGTLVTVSS VL: DIVMTQSPDSLAVSLGERATINCKSSQSLFNSHTRKNYLAWYQQKPGQPPKLLIYWASARGSGVPDRFSGSGSGTDFTLTISSLQAEDVAVYYCKQSFNLRTFGGGTKVEIK: 22.4 min
h3G10.2.37 VH / h3G10.2.72 VL Fab (Fab, V domains shown, Tested as Fab) VH: EVQLVESGGGLVQPGGSLRLSCAASGFTFSDYYMSWVRQAPGKGLEWVGFIRHKANFYTREYSTSVKGRFTISRDDSKNSLYLQMNSLKTEDTAVYYCARDLPGFAYWGQGTLVTVSS VL: DIVMTQSPDSLAVSLGERATINCKSSQSLFNSRTRKNYLAWYQQKPGQPPKLLIYWASARESGVPDRFSGSGSGTDFTLTISSLQAEDVAVYYCKQSFRLRTFGGGTKVEIK: 14.4 min

Given the binder h3G10.1.91 VH / h3G10.2.72 VL Fab (Fab, V domains shown, Tested as Fab) VH: EVQLVESGGGLVQPGGSLRLSCAASGFTFSDYYMSWVRQAPGKGLEWVGFIRHKANFETTEYSTSVKGRFTISRDDSKNSLYLQMNSLKTEDTAVYYCARDLPGFAYWGQGTLVTVSS VL: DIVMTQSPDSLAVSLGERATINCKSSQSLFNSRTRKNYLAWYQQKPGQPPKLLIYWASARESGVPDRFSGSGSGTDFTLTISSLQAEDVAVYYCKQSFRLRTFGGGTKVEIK , what is its reported t½?
23.5 min

Data provenance: patent US20150037328A1
